# protocol_conditions: in water, 298.2 K
measure: solubility (mole fraction)
Field format: numeric only.

Ask | Return reported solubility (mole fraction). Input molecule: `Nc1cccc(C(=O)O)c1O`
Reply | 0.000122

###

# protocol_conditions: in water, 303.2 K
measure: solubility (mole fraction)
Lab note: record the figure alone, no unit after it.

Ask | Give reported solubility (mole fraction) value for `Nc1cccc(C(=O)O)c1O`
Reply | 0.000139

###

# protocol_conditions: in n-propanol, 313.2 K
measure: solubility (mole fraction)

Ask | Please report solubility (mole fraction) for the following compound: `Nc1cccc(C(=O)O)c1O`
Reply | 0.000681

###

# protocol_conditions: in n-propanol, 308.2 K
measure: solubility (mole fraction)
Give a plain numeric answer without units written out.

Ask | For `Nc1cccc(C(=O)O)c1O` , write its solubility (mole fraction).
Reply | 0.00058

###

# protocol_conditions: in n-propanol, 298.2 K
measure: solubility (mole fraction)
// no unit string in output, number only

Ask | Read the entry `Nc1cccc(C(=O)O)c1O` and write its reported solubility (mole fraction).
Reply | 0.00046

###

# protocol_conditions: in water, 308.2 K
measure: solubility (mole fraction)

Ask | Give me measured solubility (mole fraction), please, for this molecule: `Nc1cccc(C(=O)O)c1O`
Reply | 0.000148

###

# protocol_conditions: in water, 313.2 K
measure: solubility (mole fraction)

Ask | Identify the reported solubility (mole fraction) for the following entry. `Nc1cccc(C(=O)O)c1O`
Reply | 0.000165
